- Tested on: CAKI-1
- ASSAY_DETAILS: Cytotoxicity against human Caki1 cells
- Assay type: functional

| GIVEN_SMILES | UNIT_ANNOTATION | CENSORING_SIGN | LC50 |
| --- | --- | --- | --- |
| COc1cc(/C=C/c2cc(OC)c3c(C/C=C(\C)CCC=C(C)C)c[nH]c3c2)cc2c1O[C@]1(C)CC[C@@H](O)C(C)(C)[C@H]1C2 | µM | > | 100 |
| COc1cc(/C=C/c2cc(O)c3c(C/C=C(\C)CCC=C(C)C)c[nH]c3c2)cc2c1O[C@]1(C)CC[C@@H](O)C(C)(C)[C@H]1C2 | µM | = | 7.76 |
| COc1cc(/C=C/c2cc(OC)c3ccn(C)c3c2)cc2c1O[C@]1(C)CC[C@@H](O)C(C)(C)[C@H]1C2 | µM | > | 100 |
| COc1cc(/C=C/c2cc(O)c3cc[nH]c3c2)cc2c1O[C@]1(C)CC[C@@H](O)C(C)(C)[C@H]1C2 | µM | = | 20.9 |
| COc1cc(/C=C/c2cc(O)c3cc(CC=C(C)C)[nH]c3c2)cc2c1O[C@]1(C)CC[C@@H](O)C(C)(C)[C@H]1C2 | µM | > | 100 |

---

- Test system: SNB-75
- ASSAY_DETAILS: Cytotoxicity against human SNB75 cells
- Format: functional
- CONDITION_SUMMARY: read-out: pLC50 (the source's name) (converted)

| GIVEN_SMILES | UNIT_ANNOTATION | CENSORING_SIGN | CC50 |
| --- | --- | --- | --- |
| COc1cc(/C=C/c2cc(OC)c3ccn(C)c3c2)cc2c1O[C@]1(C)CC[C@@H](O)C(C)(C)[C@H]1C2 | µM | > | 100 |
| COc1cc(/C=C/c2cc(O)c3cc(CC=C(C)C)[nH]c3c2)cc2c1O[C@]1(C)CC[C@@H](O)C(C)(C)[C@H]1C2 | µM | > | 100 |
| COc1cc(/C=C/c2cc(O)c3c(CC=C(C)C)c[nH]c3c2)cc2c1O[C@]1(C)CC[C@@H](O)C(C)(C)[C@H]1C2 | µM | = | 50.1 |
| COc1cc(/C=C/c2cc(O)c3ccn(C)c3c2)cc2c1O[C@]1(C)CC[C@@H](O)C(C)(C)[C@H]1C2 | µM | = | 93.3 |

---

- Test system: K562
- ASSAY_DETAILS: Cytotoxicity against human K562 cells
- Assay type: functional
MEASURED_ATTRIBUTE: log10(GI50) (log10 of the value in nM)

| GIVEN_SMILES | log10(GI50) |
| --- | --- |
| CC1(C)[C@H](O)CC[C@@]2(C)Oc3c(O)cc(/C=C/c4cc(O)c5cc[nH]c5c4)cc3C[C@H]12 | 2.42 |
| COc1cc(/C=C/c2cc(O)c3c(c2)C[C@@H]2C(C)(C)[C@H](O)CC[C@@]2(C)O3)cc2[nH]cc(CC=C(C)C)c12 | 2.14 |
| COc1cc(/C=C/c2cc(OC)c3c(C/C=C(\C)CCC=C(C)C)c[nH]c3c2)cc2c1O[C@]1(C)CC[C@@H](O)C(C)(C)[C@H]1C2 | 2.63 |
| COc1cc(/C=C/c2cc(O)c3c(c2)C[C@@H]2C(C)(C)[C@H](O)CC[C@@]2(C)O3)cc2c1ccn2C | 1.91 |
| COc1cc(/C=C/c2cc(OC)c3ccn(C)c3c2)cc2c1O[C@]1(C)CC[C@@H](O)C(C)(C)[C@H]1C2 | 3.00 |
| COc1cc(/C=C/c2cc(O)c3ccn(C)c3c2)cc2c1O[C@]1(C)CC[C@@H](O)C(C)(C)[C@H]1C2 | 2.90 |
| COc1cc(/C=C/c2cc(O)c3cc[nH]c3c2)cc2c1O[C@]1(C)CC[C@@H](O)C(C)(C)[C@H]1C2 | 2.85 |
| COc1cc(/C=C/c2cc(O)c3c(CC=C(C)C)c[nH]c3c2)cc2c1O[C@]1(C)CC[C@@H](O)C(C)(C)[C@H]1C2 | 2.35 |
| COc1cc(/C=C/c2cc(O)c3c(C/C=C(\C)CCC=C(C)C)c[nH]c3c2)cc2c1O[C@]1(C)CC[C@@H](O)C(C)(C)[C@H]1C2 | 2.62 |
| COc1cc(/C=C/c2cc(OC)c3cc[nH]c3c2)cc2c1O[C@]1(C)CC[C@@H](O)C(C)(C)[C@H]1C2 | 2.51 |
| COc1cc(/C=C/c2cc(O)c3cc(CC=C(C)C)[nH]c3c2)cc2c1O[C@]1(C)CC[C@@H](O)C(C)(C)[C@H]1C2 | 3.31 |
| COc1cc(/C=C/c2cc(OC)c3c(CC=C(C)C)c[nH]c3c2)cc2c1O[C@]1(C)CC[C@@H](O)C(C)(C)[C@H]1C2 | 2.49 |
